Listed here are binders together with their documented pIC50.
# target.of.assay: T1, His10/Avi Human IL33-01 (human)
# T1 construct: Wild type mature IL-33 with N-terminal 10xHis, Avitag and Factor Xa site; biotinylated by BirA on the Avitag where used biotinylated; reduced form unless treated; also called N-terminal His Avi IL-33; His-Avi human IL-33 wild type
# T1 chain: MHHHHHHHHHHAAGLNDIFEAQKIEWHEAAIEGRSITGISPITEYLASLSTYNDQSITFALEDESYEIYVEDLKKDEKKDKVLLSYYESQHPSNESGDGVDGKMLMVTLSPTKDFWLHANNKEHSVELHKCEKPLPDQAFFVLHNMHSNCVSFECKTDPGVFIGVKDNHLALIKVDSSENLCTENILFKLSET
# protocol.notes: HTRF epitope competition, IgG titrated; competitor DyLight labelled 33_640117 IgG; 1 hour
A value of pIC50 is the negative decimal logarithm of a concentration given in moles per litre.

binder	measured.property	measured.number
33_640076-4 IgG1 (antibody, V domains shown, IgG1) VH: EVQLLESGGGLVQPGGSLRLSCAASGFTFSSYAMSWVRQAPGKGLEWVSGISAIDQSTYYADSVKGRFTISRDNSKNTLYLQMNSLRAEDTAVYYCARDLWMENWVGGLRYPFGYWGQGTMVTVSS VL: SYVLTQPPSVSVSPGQTASITCSGERMGDKYAAWYQQKPGQSPVLVIYRDTKRPSGIPERFSGSNSGNTATLTISGTQAMDEADYYCEVKKSDTGVFGGGTKVTVL	pIC50	10.00

Lookup: Consider the binder 33_640201 IgG1 (antibody, V domains shown, IgG1; also called ZZ1JMY-H09) VH: EVQLLESGGGLVQPGGSLRLSCAASGFTFSSYAMSWVRQAPGKGLEWVSSIDAISSSTYYADSVKGRFTISRDNSKNTLYLQMNSLRAEDTAVYYCSRQKFMQLWGGGLRYPFGYWGQGTMVTVSS VL: SYVLTQPPSVSVSPGQTASITCSGERMGDKYAAWYQQKPGQSPVLVIYQDTKRPSGIPERFSGSNSGNTATLTISGTQAVDEADYYCGVLKQDTGVFGGGTKVTVL . State its measured pIC50.
Found: 9.70
